- Experiment Notes: microPET imaging of U87MG tumor xenografts in mice
- Assay type: in vivo, nude mice
- Study Conditions: nude, mouse, liver, iv, total radioactivity
Recorded Metric: tissue uptake at 2 h (%ID/g)
// units = %ID/g; emit number, no label

[Q] GET /values?readout=tissue uptake at 2 h&item= N=C(N)NCCC[C@@H]1NC(=O)[C@H](CCCCNC(=O)CC[C@H](NC(=O)COCCOCCOCCNC(=O)[C@@H]2CSC(c3nc4ccc(OCCF)cc4s3)=N2)C(=O)NCCCC[C@@H]2NC(=O)[C@@H](Cc3ccc(O)cc3)NC(=O)[C@H](CC(=O)O)NC(=O)CNC(=O)[C@H](CCCNC(=N)N)NC2=O)NC(=O)[C@@H](Cc2ccc(O)cc2)NC(=O)[C@H](CC(=O)O)NC(=O)CNC1=O [[^18F]CBTRGD2]
[A] 2.15

###

- Experiment Notes: microPET imaging of U87MG tumor xenografts in mice
- Type: in vivo, nude mice
- Study Conditions: nude, mouse, tumor, iv, 20 mg/kg, total radioactivity
Recorded Metric: tissue uptake at 1 h (%ID/g)
// units = %ID/g; emit number, no label

[Q] GET /values?readout=tissue uptake at 1 h&item= N=C(N)NCCC[C@@H]1NC(=O)[C@H](CCCCNC(=O)CC[C@H](NC(=O)COCCOCCOCCNC(=O)[C@@H]2CSC(c3nc4ccc(OCCF)cc4s3)=N2)C(=O)NCCCC[C@@H]2NC(=O)[C@@H](Cc3ccc(O)cc3)NC(=O)[C@H](CC(=O)O)NC(=O)CNC(=O)[C@H](CCCNC(=N)N)NC2=O)NC(=O)[C@@H](Cc2ccc(O)cc2)NC(=O)[C@H](CC(=O)O)NC(=O)CNC1=O [[^18F]CBTRGD2]
[A] 1.26

###

- Experiment Notes: microPET imaging of U87MG tumor xenografts in mice
- Type: in vivo, nude mice
- Study Conditions: nude, mouse, kidney, iv, total radioactivity
Recorded Metric: tissue uptake at 2 h (%ID/g)
// units = %ID/g; emit number, no label

[Q] GET /values?readout=tissue uptake at 2 h&item= N=C(N)NCCC[C@@H]1NC(=O)[C@H](CCCCNC(=O)CC[C@H](NC(=O)COCCOCCOCCNC(=O)[C@@H]2CSC(c3nc4ccc(OCCF)cc4s3)=N2)C(=O)NCCCC[C@@H]2NC(=O)[C@@H](Cc3ccc(O)cc3)NC(=O)[C@H](CC(=O)O)NC(=O)CNC(=O)[C@H](CCCNC(=N)N)NC2=O)NC(=O)[C@@H](Cc2ccc(O)cc2)NC(=O)[C@H](CC(=O)O)NC(=O)CNC1=O [[^18F]CBTRGD2]
[A] 2.26

###

- Experiment Notes: microPET imaging of U87MG tumor xenografts in mice
- Format: in vivo, nude mice
- Study Conditions: nude, mouse, tumor versus muscle (background), iv, total radioactivity
Recorded Metric: tissue to tissue ratio at 0.5 h
// no unit, no text: just the number

[Q] GET /values?readout=tissue to tissue ratio at 0.5 h&item= N=C(N)NCCC[C@@H]1NC(=O)[C@H](CCCCNC(=O)CC[C@H](NC(=O)COCCOCCOCCNC(=O)[C@@H]2CSC(c3nc4ccc(OCCF)cc4s3)=N2)C(=O)NCCCC[C@@H]2NC(=O)[C@@H](Cc3ccc(O)cc3)NC(=O)[C@H](CC(=O)O)NC(=O)CNC(=O)[C@H](CCCNC(=N)N)NC2=O)NC(=O)[C@@H](Cc2ccc(O)cc2)NC(=O)[C@H](CC(=O)O)NC(=O)CNC1=O [[^18F]CBTRGD2]
[A] 4.5
